- system tested: BCL6 (Homo sapiens (Human), UniProt P41182)
- assay method text: Immunofluorescence high content imaging of BCL6 degradation in T47D cells
- Type: cell-based
- test context: class symbols A-D, read-out: EC50 (nM)*
experimental endpoint: DC50

CNC(=O)COc1cc2cc(Nc3nc(N4CCC(OCCCCOc5ccc6c(c5)CN(C5CCC(=O)NC5=O)C6=O)CC4)ncc3Cl)ccc2n(C)c1=O (stereo not drawn)    > 100 nM

Please turn your attention to the following entry.
Task item: // query DC50 value for entry CNC(=O)COc1cc2cc(Nc3nc(N4CCC(OCCCOCCCOc5cc(-c6scnc6C)ccc5CNC(=O)[C@@H]5C[C@@H](O)CN5C(=O)C(c5cc(C)no5)C(C)C)CC4)ncc3Cl)ccc2n(C)c1=O (stereo partly drawn)
Reply: > 100 nM

---

Item-by-item account of IC50
- system tested: UniProt P41182
- assay method text: Immunofluorescence high content imaging of BCL6 degradation in T47D cells
- Assay type: cell-based
- test context: T47D cells

Known IC50 results, listed for orientation:
CNC(=O)COc1cc2cc(Nc3nc(N4CCC(CN5CCC6(CCN(c7ccc8c(c7)CN(C7CCC(=O)NC7=O)C8=O)C6)C5)CC4)ncc3Cl)ccc2n(C(C)C)c1=O (stereo not drawn)    < 10 nM
CNC(=O)CCN1Cc2cc(Nc3nc(N4CCN(CC5CCN(c6ccc7c(c6)C(=O)N(C6CCC(=O)NC6=O)C7=O)CC5)CC4)ncc3Cl)ccc2CC1=O (stereo not drawn)    1000 nM

Please turn your attention to the following entry.
Task item: // query IC50 value for entry CNC(=O)COc1cc2cc(Nc3nc(N4CC5(CC(OC6CCN(c7ccc8c(c7)C(=O)N(C7CCC(=O)NC7=O)C8=O)CC6)C5)C4)ncc3Cl)ccc2n(C(C)C)c1=O (stereo not drawn)
Reply: ≥ 100 nM

---

- system tested: BCL6 (Homo sapiens (Human), UniProt P41182)
- assay method text: Immunofluorescence high content imaging of BCL6 degradation in T47D cells
- Format: cell-based
Item-by-item account of IC50

Known IC50 results, listed for orientation:
CNC(=O)COc1cc2cc(Nc3nc(N4CCO[C@@H](COc5ccc6c(c5)C(=O)N(C5CCC(=O)NC5=O)C6=O)C4)ncc3Cl)ccc2n(C)c1=O (some centres unmarked)    50 to 100 nM
CCn1c(=O)c(OCC(=O)NC)cc2cc(Nc3nc(N4CCO[C@H](COc5ccc6c(c5)C(=O)N(C5CCC(=O)NC5=O)C6=O)C4)ncc3Cl)ccc21 (some centres unmarked)    50 to 100 nM

Task item: // query IC50 value for entry CNC(=O)COc1cc2cc(Nc3nc(N4CCN5CCN(c6ccc7c(c6)C(=O)N(C6CCC(=O)NC6=O)C7=O)CC5C4)ncc3Cl)ccc2n(C)c1=O (centres unmarked)
Reply: ≥ 100 nM

Task item: Same lookup for CNC(=O)COc1cc2cc(Nc3nc(N4CCN(C(C)(C)C5CCN(c6cccc7c6C(=O)N(C6CCC(=O)NC6=O)C7=O)CC5)CC4)ncc3Cl)ccc2n(C(C)C)c1=O (centres unmarked) , please.
Reply: < 10 nM

Task item: Same lookup for CC(=O)[C@@H](C)Oc1cc2cc(Nc3nc(N4CCC(CN5CCN(c6ccc7c(c6)C(=O)N([C@H]6CCC(=O)NC6=O)C7=O)CC5)CC4)ncc3Cl)ccc2n(C)c1=O , please.
Reply: 10 to 50 nM
